# credit: patent US12146004B2

Tested on: Pseudomonas aeruginosa
Type: cell-based
Bridge positions count the residues as written; N and C are the ends. Square brackets hold non-standard residues; d marks the D form. Peptide text beside a SMILES is read from it. * marks the point of attachment. X14 = CC(C)c1ccc(CO[C@@H](CCN)C(=O)*)cc1; dCha = N[C@H](CC1CCCCC1)C(=O)O; Dab = NCC[C@H](N)C(=O)O; Dap = NC[C@H](N)C(=O)O
READOUT TYPE: MIC P. aeruginosa 068 (µg/mL)

- MOLECULE: "CC(C)C[C@@H]1NC(=O)[C@@H](CC2CCCCC2)NC(=O)[C@H](CCN)NC(=O)[C@@H](NC(=O)[C@H](CCN)NC(=O)[C@@H](NC(=O)C(CN)Cc2ccccc2)C(C)O)CCNC(=O)[C@H]([C@@H](C)O)NC(=O)[C@H](CCN)NC(=O)[C@H](CCN)NC1=O (single isomer, unassigned; isomer 2) [Example 53]"
  READOUT TYPE: "MIC P. aeruginosa 068"
  ASSAY RESULT: 8
- MOLECULE: "CC(C)C[C@@H]1NC(=O)[C@@H](CC2CCCCC2)NC(=O)[C@H](CCN)NC(=O)[C@@H](NC(=O)[C@H](CN)NC(=O)[C@@H](NC(=O)[C@H](CCN)OCc2ccc(C(C)C)cc2)[C@@H](C)O)CCNC(=O)[C@H]([C@@H](C)O)NC(=O)[C@H](CCN)NC(=O)[C@H](CCN)NC1=O [Example 88] (X14-T[Dap][Dab][Dab][dCha]L[Dab][Dab]T; lactam 3-C)"
  READOUT TYPE: "MIC P. aeruginosa 068"
  ASSAY RESULT: 4
- MOLECULE: "CCCCCCCCC1CNCC1C(=O)N[C@H](C(=O)N[C@@H](CCN)C(=O)N[C@H]1CCNC(=O)[C@H]([C@@H](C)O)NC(=O)[C@H](CCN)NC(=O)[C@H](CCN)NC(=O)[C@H](CC(C)C)NC(=O)[C@@H](Cc2ccccc2-c2ccccc2)NC(=O)[C@H](CCN)NC1=O)C(C)O (single isomer, unassigned; isomer 1) [Example 9]"
  READOUT TYPE: "MIC P. aeruginosa 068"
  ASSAY RESULT: 2
